# assay system: T1, monomeric human BCMA (human, UniProt Q02223 1-54, limits assumed)
# T1 construct: also called monomeric BCMA antigen
# T1 sequence: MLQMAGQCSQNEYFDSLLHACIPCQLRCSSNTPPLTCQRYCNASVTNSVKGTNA
# test description: SPR, monomeric human BCMA
Recorded koff for the following binders
Unit s⁻¹ implied. Number only.

Consider the worked cases shown below.
binder="BCMB177 (antibody, human IgG4 S228P, lambda, F234A L235A, V domains shown, IgG4 S228P, L234A, L235A; also called BCBM177) VH: QLQLQESGPGLVKPSETLSLTCTVSGGSISSSSYFWGWIRQPPGKGLEWIGSIYYSGRTYYNPSLKSRVTISVDTSKNQFSLKLSSVTAADTAVYYCARHDGATAGLFDYWGQGTLVTVSS VL: SYVLTQPPSVSVAPGQTARITCGGNNIGSKSVHWYQQPPGQAPVVVVYDDSDRPSGIPERFSGSNSGNTATLTISRVEAGDEAVYYCQVWDSSSDHVVFGGGTKLTVLG" numeric_value=0.0566
binder="BCMB128 (antibody, human IgG4 S228P, lambda, F234A L235A, V domains shown, IgG4 S228P, L234A, L235A; also called BCBM128) VH: QLQLQESGPGLVKPSETLSLTCTVSGGSISSGSYFWGWIRQPPGKGLEWIGSIYYSGITYYNPSLKSRVTISVDTSKNQFSLKLSSVTAADTAVYYCARHDGATAGLFDYWGQGTLVTVSS VL: SYVLTQPPSVSVAPGQTARITCGGNNIGSKSVHWYQQPPGQAPVVVVYDDSDRPSGIPERFSGSNSGNTATLTISRVEAGDEAVYYCQVWDSSSDHVVFGGGTKLTVLG" numeric_value=0.0087
binder="BCMB123 (antibody, human IgG4 S228P, lambda, F234A L235A, V domains shown, IgG4 S228P, L234A, L235A; also called BCBM123) VH: QLQLQESGPGLVKPSETLSLTCTVSGGSISSSSYFWGWIRQPPGKGLEWIGSIYYSGITYYNPSLKSRVTISVDTSKNQFSLKLSSVTAADTAVYYCARHDGAVAGLFDYWGQGTLVTVSS VL: SYVLTQPPSVSVAPGQTARITCGGNNIGSKSVHWYQQPPGQAPVVVVYDDSDRPSGIPERFSGSNSGNTATLTISRVEAGDEAVYYCQVWDSSSDHVVFGGGTKLTVLG" numeric_value=0.011

Continue with the binder presented below.
Record summary for BCMB176 (antibody, human IgG4 S228P, lambda, F234A L235A, V domains shown, IgG4 S228P, L234A, L235A; also called BCBM176) VH: QLQLQESGPGLVKPSETLSLTCTVSGGSISSSSYFWGWIRQPPGKGLEWIGSIYYSGITYYNPSLKSRVTISVDTSKNQFSLKLSSVTAADTAVYYCARHDGATAGLFDYWGQGTLVTVSS VL: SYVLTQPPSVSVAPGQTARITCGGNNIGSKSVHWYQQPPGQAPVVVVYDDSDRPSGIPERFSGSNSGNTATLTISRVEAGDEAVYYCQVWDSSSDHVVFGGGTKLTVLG : reported koff = 0.0288
